Quick reference for residual activity among some compounds
TARGET OF ASSAY: Dual specificity mitogen-activated protein kinase kinase 1 (Homo sapiens) (UniProt Q02750)
Sequence (Q02750 whole entry): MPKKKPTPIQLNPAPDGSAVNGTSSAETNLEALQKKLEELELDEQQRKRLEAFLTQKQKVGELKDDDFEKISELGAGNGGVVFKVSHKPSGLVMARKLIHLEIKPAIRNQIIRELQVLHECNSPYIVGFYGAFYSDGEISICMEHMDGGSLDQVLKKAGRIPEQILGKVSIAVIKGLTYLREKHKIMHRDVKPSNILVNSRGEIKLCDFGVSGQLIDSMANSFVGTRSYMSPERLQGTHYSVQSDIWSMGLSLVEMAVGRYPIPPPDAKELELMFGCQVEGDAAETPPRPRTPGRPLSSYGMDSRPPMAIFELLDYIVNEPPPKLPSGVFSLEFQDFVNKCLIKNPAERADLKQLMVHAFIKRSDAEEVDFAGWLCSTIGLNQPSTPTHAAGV
CONDITION LABEL: at 1 µM
Description: Millipore: Percentage of residual kinase activity of MAP2K1 at 1uM relative to control. Control inhibitor: Phosphoric acid* at 0.3uM. Buffer: 50 mM Tris pH 7.5, 0.2 mM EGTA, 0.1% ?-mercaptoethanol, 0.01% Brij-35
Could you give me the number in %? Just the number is fine.

In the examples that follow, each entry is paired with its recorded residual activity.
COc1ccc(S(=O)(=O)N(CCO)c2ccccc2CN(C)C/C=C/c2ccc(Cl)cc2)cc1 | 97
Nc1ccc2ncnc(NCCc3ccc(Oc4ccccc4)cc3)c2c1 | 99
Oc1n[nH]c2nnc(-c3c(-c4ccccc4)nn4ccccc34)cc12 | 104
CO[C@@H]1[C@H](N(C)C(=O)c2ccccc2)C[C@H]2O[C@]1(C)n1c3ccccc3c3c4c(c5c6ccccc6n2c5c31)C(=O)NC4 | 74
CN(C)c1ccc(/C=C2\C(=O)Nc3ccccc32)cc1 | 114
CC(C)n1cnc2c(NCc3ccccc3)nc(NCCCO)nc21 | 103

Exercise: Report value only: residual activity, Dual specificity mitogen-activated protein kinase kinase 1 (Homo sapiens) (UniProt Q02750), `CCN(CC)CCCCN1c2ccccc2Oc2ccc(Cl)cc21`
Key: 117

Exercise: // fetch residual activity; item: `Nc1n[nH]c2nnc(-c3c(-c4ccccc4)nn4ccccc34)cc12` ; system: Dual specificity mitogen-activated protein kinase kinase 1 (Homo sapiens) (UniProt Q02750)
Key: 89

Exercise: Give residual activity; test system Dual specificity mitogen-activated protein kinase kinase 1 (Homo sapiens) (UniProt Q02750); compound `Cc1ccc(S(=O)(=O)/C=C/C#N)cc1`
Key: 105

Exercise: Provide measured residual activity on Dual specificity mitogen-activated protein kinase kinase 1 (Homo sapiens) (UniProt Q02750) for `O=Nc1c(-c2c(O)[nH]c3ccccc23)[nH]c2ccccc12` please.
Key: 64

----------
Listed here are compounds together with their documented residual activity.
TARGET OF ASSAY: Glycogen synthase kinase-3 beta (Homo sapiens) (UniProt P49841)
Sequence (P49841 whole entry, looked up): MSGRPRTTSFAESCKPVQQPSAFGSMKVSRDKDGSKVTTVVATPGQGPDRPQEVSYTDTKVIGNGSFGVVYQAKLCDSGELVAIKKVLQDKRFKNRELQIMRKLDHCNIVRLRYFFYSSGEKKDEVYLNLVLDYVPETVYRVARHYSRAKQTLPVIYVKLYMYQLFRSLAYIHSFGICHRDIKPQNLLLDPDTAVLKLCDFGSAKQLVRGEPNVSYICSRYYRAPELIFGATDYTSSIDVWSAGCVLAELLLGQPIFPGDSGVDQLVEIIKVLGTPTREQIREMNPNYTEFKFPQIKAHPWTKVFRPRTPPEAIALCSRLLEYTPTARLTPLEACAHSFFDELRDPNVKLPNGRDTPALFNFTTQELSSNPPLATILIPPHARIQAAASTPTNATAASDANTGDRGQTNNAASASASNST
CONDITION LABEL: at 1 µM
Please state the number and follow it with the unit.

// known answers, use as guide
O=C1NC(=O)/C(=C\c2ccc3nccnc3c2)S1 | 85%
Cc1cccc(-c2[nH]c(C(C)(C)C)nc2-c2ccc3c(c2)OCO3)n1 | 104%
O=c1cc(-c2cccc3c2Sc2ccccc2S3)oc(N2CCOCC2)c1 | 106%

Exercise: Return residual activity for the following compound: `Cc1cc(Nc2nc(-c3ccccc3)nc3ccccc23)n[nH]1`
Key: 20%

Exercise: Please supply the value of reported residual activity for the item `Nc1ccc2ncnc(NCCc3ccc(Oc4ccccc4)cc3)c2c1`
Key: 103%

Exercise: Using the record for `O=C1NC(=O)/C(=C/c2ccc3c(c2)OC(F)(F)O3)S1` , state its measured residual activity.
Key: 93%

----------
TARGET OF ASSAY: Serine/threonine-protein kinase MARK1 (Homo sapiens) (UniProt Q9P0L2)
Sequence (Q9P0L2 whole entry, looked up): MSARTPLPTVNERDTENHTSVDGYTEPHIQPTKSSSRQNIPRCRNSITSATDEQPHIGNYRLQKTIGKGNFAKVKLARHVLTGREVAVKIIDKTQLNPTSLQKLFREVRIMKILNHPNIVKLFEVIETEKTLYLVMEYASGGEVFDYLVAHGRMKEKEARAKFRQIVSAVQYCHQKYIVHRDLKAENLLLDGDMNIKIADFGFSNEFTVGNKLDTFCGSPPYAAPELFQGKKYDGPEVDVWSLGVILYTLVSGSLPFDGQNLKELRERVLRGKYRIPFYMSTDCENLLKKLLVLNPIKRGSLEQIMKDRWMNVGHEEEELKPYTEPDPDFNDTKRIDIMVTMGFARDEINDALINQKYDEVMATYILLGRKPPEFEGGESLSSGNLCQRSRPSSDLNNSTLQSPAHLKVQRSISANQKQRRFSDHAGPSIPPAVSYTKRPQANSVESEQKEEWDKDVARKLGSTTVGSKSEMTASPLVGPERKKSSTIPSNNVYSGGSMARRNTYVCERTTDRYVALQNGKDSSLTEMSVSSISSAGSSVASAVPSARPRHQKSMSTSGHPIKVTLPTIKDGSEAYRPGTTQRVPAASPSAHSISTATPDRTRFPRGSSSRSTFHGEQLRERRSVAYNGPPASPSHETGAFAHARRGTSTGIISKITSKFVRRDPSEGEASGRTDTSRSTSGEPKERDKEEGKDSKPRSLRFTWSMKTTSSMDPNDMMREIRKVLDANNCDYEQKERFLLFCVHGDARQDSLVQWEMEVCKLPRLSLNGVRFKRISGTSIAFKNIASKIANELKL
CONDITION LABEL: at 1 µM
ASSAY ENDPOINT: residual activity (%)
Please state the figure in %; there is no need to write the unit.

CO[C@@H]1[C@H](N(C)C(=O)c2ccccc2)C[C@H]2O[C@]1(C)n1c3ccccc3c3c4c(c5c6ccccc6n2c5c31)C(=O)NC4 | 1

Exercise: Supply measured residual activity of `O=C1Nc2cc(Br)ccc2/C1=C1/Nc2ccccc2/C1=N\O` in your reply.
Key: 21

Exercise: For the compound `CC(C)n1cnc2c(NCc3ccccc3)nc(NCCCO)nc21` , give its measured residual activity value.
Key: 81

Exercise: # return recorded residual activity for input `CCN(CC)CCCCN1c2ccccc2Oc2ccc(Cl)cc21`
Key: 106

Exercise: Return reported residual activity. Input compound: `O=c1cc(-c2cccc3c2Sc2ccccc2S3)oc(N2CCOCC2)c1`
Key: 104

Exercise: Tell me residual activity reported for `Nc1ccc2ncnc(NCCc3ccc(Oc4ccccc4)cc3)c2c1`
Key: 87

Exercise: Look up and state reported residual activity for `c1ccc(-c2n[nH]cc2-c2ccnc3ccccc23)nc1`
Key: 93

Exercise: Fill in reported residual activity for this entry: `Cc1nc2cc3nc(-c4cccs4)cnc3cc2n1C`
Key: 107

Exercise: # return recorded residual activity for entry `N#CCCc1ccc2c(c1)-c1[nH]c3ccc([N+](=O)[O-])cc3c1CC(=O)N2`
Key: 30

Exercise: Give recorded residual activity. `c1ccc(-c2n[nH]c3c2oc2ccccc23)cc1`
Key: 69

Exercise: Fill in residual activity for record `Nc1cccc(-c2cc3c(Oc4cccc(O)c4)ncnc3[nH]2)c1`
Key: 51

Exercise: Assign residual activity to the following record: `O=C1NC(=O)/C(=C/c2ccc3c(c2)OC(F)(F)O3)S1`
Key: 100

Exercise: State, in one line, measured residual activity of `COc1cc2ncnc(Nc3ccc(O)c(Br)c3)c2cc1OC`
Key: 70

Exercise: Output residual activity of `O=c1c2ccccc2[nH]c(=S)n1CCN1CCC(=C(c2ccc(F)cc2)c2ccc(F)cc2)CC1`
Key: 100

Exercise: Indicate its recorded residual activity; the compound in question is `COc1ccc(CNc2nc(N(CCO)CCO)nc3c2ncn3C(C)C)cc1`
Key: 85

Exercise: Given `CCN(CC)C(=O)c1ccc(Nc2nc(OCC3CCCCC3)c3nc[nH]c3n2)cc1` , respond with its residual activity.
Key: 60

Exercise: Tell us which residual activity value is on record for `Cc1cc(Nc2nc(-c3ccccc3)nc3ccccc23)n[nH]1`
Key: 66

Exercise: Quote residual activity reported for `O=C(Nc1cccc(Nc2cc(Nc3cccc(C(F)(F)F)c3)ncn2)c1)C1CC1` please.
Key: 83

Exercise: Complete the entry with residual activity for `O=C1NC(=O)/C(=C\c2ccc3nccnc3c2)S1`
Key: 86

Exercise: // Input: `Cc1cc2ncc(-c3ccccc3)nc2cc1C` . Output its residual activity only.
Key: 84

Exercise: Assign residual activity to the following record: `C[C@@H](N)[C@H]1CC[C@H](C(=O)Nc2ccncc2)CC1`
Key: 95

Exercise: Please report the measured residual activity for `COc1ccc(S(=O)(=O)N(CCO)c2ccccc2CN(C)C/C=C/c2ccc(Cl)cc2)cc1`
Key: 83
